- Tested on: HCV 1b-BB7 subgenomic replicon
- experiment summary: microbe, parasite or virus in culture
- Type: cell-based, HCV genotype 1b
- settings: Hepatitis C virus, stable replicon, strain 1b BB7, 5% FBS; read-out: 1b BB7 5% FBS EC50
// NB: equality with 10 nM counts as Not fulfilled; only EC50 strictly below is Fulfilled

Just wondering, is EC50 of CS(=O)(=O)N(CCCCCO)c1cc2oc(-c3ccc(F)cc3)c(-c3ncc[nH]3)c2cc1C1CC1 [Example 88] below 10 nM? Fulfilled

Please let me know if CC1NC(c2c(-c3ccc(F)cc3)oc3cc(N(CCO)S(C)(=O)=O)c(C4CC4)cc23)=NO1 (stereo not shown) [Example 158] shows EC50 below 10 nM. Not fulfilled

is_below(EC50, 10 nM) for CS(=O)(=O)NC(=O)CCCN(c1cc2oc(-c3ccc(F)cc3)c(-c3ncc[nH]3)c2cc1C1CC1)S(C)(=O)=O [Example 105] ? Not fulfilled

Quick check: does CC[S+]([O-])CCN(c1cc2oc(-c3ccc(F)cc3)c(C3=NOCCN3)c2cc1C1CC1)S(C)(=O)=O (stereo not shown) [Example 141] have EC50 under 10 nM? Not fulfilled

Check if EC50 falls below 10 nM for CS(=O)(=O)N(CCCCC(=O)O)c1cc2oc(-c3ccc(F)cc3)c(-c3ncc[nH]3)c2cc1C1CC1 [Example 92] . Not fulfilled

Consider Cn1cnc2ccc(-c3ncc(CN(c4ccc5c(-c6ncc[nH]6)c(-c6ccccc6)oc5c4)S(C)(=O)=O)s3)cc21 [Example 30] . Does its EC50 lie strictly below 10 nM? Fulfilled

Decide: EC50 of CS(=O)(=O)N(CC1CCCCC1)c1cc2oc(-c3ccc(F)cc3)c(-c3ncc[nH]3)c2cc1C1CC1 [Example 45] strictly below 10 nM? Not fulfilled

For CC(C)CCN(c1cc2oc(-c3ccc(F)cc3)c(-c3nc(C(F)(F)F)c[nH]3)c2cc1C1CC1)S(C)(=O)=O [Example 171] , is the recorded EC50 below the cut-off of 10 nM? Not fulfilled

Regarding CS(=O)(=O)N(CC1CCNC1)c1cc2oc(-c3ccc(F)cc3)c(-c3ncc[nH]3)c2cc1C1CC1 (stereo not shown) [Example 51] , kindly confirm whether its EC50 is beneath 10 nM. Not fulfilled

Hello, I'm reviewing records and need to know if EC50 of CCN(c1cc2oc(-c3ccc(F)cc3)c(-c3ncc[nH]3)c2cc1C1CC1)S(C)(=O)=O [Example 56] is below 10 nM. Could you check? Not fulfilled

Is EC50 of CS(=O)(=O)N(CCCC#N)c1cc2oc(-c3ccc(F)cc3)c(C3=NOCCN3)c2cc1C1CC1 [Example 133] strictly below 10 nM? Fulfilled

Criterion: EC50 strictly below 10 nM. Is it met by CS(=O)(=O)N(CC#N)c1cc2oc(-c3ccc(F)cc3)c(-c3ncc[nH]3)c2cc1C1CC1 [Example 63] ? Not fulfilled

Is 10 nM strictly greater than the compound's reported EC50? compound: COCCCN(c1cc2oc(-c3ccc(F)cc3)c(-c3ncc[nH]3)c2cc1C1CC1)S(C)(=O)=O [Example 69] Fulfilled

Here's an entry: CS(=O)(=O)N(Cc1cnc(-c2ccc3[nH]ccc3c2)s1)c1cc2oc(-c3ccc(F)cc3)c(-c3ncc[nH]3)c2cc1C1CC1 [Example 31] . Is its EC50 below 10 nM? Not fulfilled

Hi there! Is EC50 for CCOC(=O)CCCCN(c1cc2oc(-c3ccc(F)cc3)c(-c3ncc[nH]3)c2cc1C1CC1)S(C)(=O)=O [Example 50] below 10 nM, do you know? Fulfilled

Please let me know if CC(C)(O)CCCN(c1cc2oc(-c3ccc(F)cc3)c(-c3ncc[nH]3)c2cc1C1CC1)S(C)(=O)=O [Example 99] shows EC50 below 10 nM. Fulfilled

Dear colleague, could you confirm whether EC50 of CC(=O)CCCCN(c1cc2oc(-c3ccc(F)cc3)c(-c3ncc[nH]3)c2cc1C1CC1)S(C)(=O)=O [Example 77] falls below 10 nM? Thanks. Fulfilled

Quick check: does CC1NC(c2c(-c3ccc(F)cc3)oc3cc(N(CC[S+](C)[O-])S(C)(=O)=O)c(C4CC4)cc23)=NO1 (stereo not shown) [Example 13] have EC50 under 10 nM? Not fulfilled

Does the reported EC50 of CC(C)(O)C(O)CCN(c1cc2oc(-c3ccc(F)cc3)c(C3=NOCN3)c2cc1C1CC1)S(C)(=O)=O (stereo not shown) [Example 146] stay below 10 nM? Not fulfilled

Take the compound CCOC(=O)CN(c1cc2oc(-c3ccc(F)cc3)c(-c3ncc[nH]3)c2cc1C1CC1)S(C)(=O)=O [Example 33] and say whether its EC50 is less than 10 nM. Not fulfilled

Lab log: compare recorded EC50 with 10 nM; is it strictly lower for CC1NC(c2c(-c3ccc(F)cc3)oc3cc(N(CCCCO)S(C)(=O)=O)c(C4CC4)cc23)=NO1 (stereo not shown) [Example 11] ? Not fulfilled

Regarding CS(=O)(=O)N(CCC(O)CO)c1cc2oc(-c3ccc(F)cc3)c(-c3ncc[nH]3)c2cc1C1CC1 (stereo not shown) [Example 110] , kindly confirm whether its EC50 is beneath 10 nM. Not fulfilled

Answer whether the compound COc1ccc(CN(c2cc3oc(-c4ccc(F)cc4)c(-c4nc(Cl)c[nH]4)c3cc2C2CC2)S(C)(=O)=O)cc1 [Example 159] has EC50 strictly less than 10 nM Not fulfilled

Strictly below 10 nM in EC50? CC[S+]([O-])CCCN(c1cc2oc(-c3ccc(F)cc3)c(C3=NOCCN3)c2cc1C1CC1)S(C)(=O)=O (stereo not shown) [Example 144] Not fulfilled

hey, is EC50 for CS(=O)(=O)N(Cc1cnc(Br)s1)c1cc2oc(-c3ccc(F)cc3)c(-c3ncc[nH]3)c2cc1C1CC1 [Example 67] lower than 10 nM or not? Not fulfilled

Quick check: EC50 of CS(=O)(=O)N(CCC1CCS(=O)(=O)C1)c1cc2oc(-c3ccc(F)cc3)c(C3=NOCN3)c2cc1C1CC1 (stereo not shown) [Example 149] under 10 nM? Fulfilled

Does the reported EC50 of the following compound sit strictly below 10 nM? CC(C)CCN(c1cc2oc(-c3ccc(F)cc3)c(C3=NOCC(=O)N3)c2cc1C1CC1)S(C)(=O)=O [Example 162] Not fulfilled

---

- measured on: HCV NS5B polymerase 1a-H77-C316Y (Hepatitis C virus genotype 1a, UniProt P27958, C2736Y)
- Construct: six-histidine tag
- Sequence (P27958 2421-2990 C2736Y): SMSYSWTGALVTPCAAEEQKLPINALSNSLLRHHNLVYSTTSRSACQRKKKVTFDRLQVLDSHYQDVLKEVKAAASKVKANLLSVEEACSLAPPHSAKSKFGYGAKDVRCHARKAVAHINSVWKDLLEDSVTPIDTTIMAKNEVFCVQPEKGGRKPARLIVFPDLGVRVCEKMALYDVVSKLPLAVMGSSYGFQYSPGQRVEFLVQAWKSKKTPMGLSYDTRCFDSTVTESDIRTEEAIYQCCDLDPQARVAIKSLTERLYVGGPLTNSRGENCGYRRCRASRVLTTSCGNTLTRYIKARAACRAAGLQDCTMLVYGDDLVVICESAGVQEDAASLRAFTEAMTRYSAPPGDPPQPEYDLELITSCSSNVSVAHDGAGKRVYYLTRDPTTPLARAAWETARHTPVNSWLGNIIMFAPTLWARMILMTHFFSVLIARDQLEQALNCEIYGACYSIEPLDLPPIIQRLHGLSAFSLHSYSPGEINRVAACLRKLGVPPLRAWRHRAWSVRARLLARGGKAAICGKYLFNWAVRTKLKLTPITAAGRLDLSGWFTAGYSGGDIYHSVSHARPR
- experiment summary: biochemical
experimental endpoint: IC50 (nM)
Write the value in nM as a bare number.

API: value(readout= IC50, system= HCV NS5B polymerase 1a-H77-C316Y (Hepatitis C virus genotype 1a, UniProt P27958, C2736Y), query= CCCC/C=C/c1ccc(-c2oc3cc(N(CCCCS(C)(=O)=O)S(C)(=O)=O)c(C4CC4)cc3c2-c2ncc[nH]2)cc1 [Example 168] ) 8.5

Value wanted: IC50 (HCV NS5B polymerase 1a-H77-C316Y (Hepatitis C virus genotype 1a, UniProt P27958, C2736Y)) of entry CS(=O)(=O)N(Cc1cccc(C(F)(F)F)c1)c1ccc2c(-c3ncc[nH]3)c(-c3ccccc3)oc2c1 [Example 32] 147

Which IC50 is reported with HCV NS5B polymerase 1a-H77-C316Y (Hepatitis C virus genotype 1a, UniProt P27958, C2736Y) for this entry: CCCN(c1cc2oc(-c3ccc(F)cc3)c(-c3ncc[nH]3)c2cc1C1CC1)S(C)(=O)=O [Example 64] ? 180

Request: IC50, test system HCV NS5B polymerase 1a-H77-C316Y (Hepatitis C virus genotype 1a, UniProt P27958, C2736Y), entry CS(=O)(=O)N(CC1CCOCC1)c1cc2oc(-c3ccc(F)cc3)c(-c3ncc[nH]3)c2cc1C1CC1 [Example 38] 148

---

Consider the following compounds; for each one, report its EC50.
- Test system: HCV 1a-H77 subgenomic replicon
- experiment summary: microbe, parasite or virus in culture
- Assay type: cell-based, HCV genotype 1a
- settings: Hepatitis C virus, stable replicon, strain 1a H77, 5% FBS; read-out: 1a H77 5% FBS EC50
Write the value in nM as a bare number.

Return reported EC50; argument: [2H]C1([2H])NC(c2c(-c3ccc(F)cc3)oc3cc(N(CCCCS(C)(=O)=O)S(C)(=O)=O)c(C4CC4)cc23)=NO1 5

Return reported EC50; argument: CS(=O)(=O)N(CCCCCO)c1cc2oc(-c3ccc(F)cc3)c(C3=NOCN3)c2cc1C1CC1 8.9

Please give the measured EC50 for this compound: CS(=O)(=O)N(Cc1cnc(-c2ccc3[nH]ccc3c2)s1)c1ccc2c(-c3ncc[nH]3)c(-c3ccccc3)oc2c1 230

EC50 for COc1ccc(CN(c2cc3oc(-c4ccc(F)cc4)c(-c4ncc[nH]4)c3cc2OC(C)C)S(C)(=O)=O)cc1 ? 540
